- System: Trypanosoma brucei rhodesiense (T. b. r.)
- ASSAY INFO: In vitro antiprotozoal activity against Trypanosoma brucei rhodesiense
- Format: cell-based
- RUN PARAMETERS: in vitro; read-out: T.b.r. IC50
ATTRIBUTE MEASURED: IC50 (nM)

MOLECULE	OUTPUT UNIT	VALUE
N=C(N)c1ccc(-c2ccc(-c3ccc(C(=N)N)cc3)o2)cc1 [Furamidine, reference compound]	nM	4.3
Cl.Cl.N=C(N)c1ccc(-c2ccc(-c3ccc(C(=N)N)nc3)s2)cn1 [Compound 33, dihydrochloride]	nM	4
Cl.Cl.N=C(N)c1ccc(-c2ccc(-c3ccc(C(=N)N)cn3)s2)nc1 [Compound 30, dihydrochloride]	nM	68

====

- Tested on: L-6 rat mycoblast cells
- ASSAY INFO: Cell toxicity assay in L-6 cells
Counter-ions that a name gives are not always drawn.
Quick reference for Cytotoxocity among some compounds
ATTRIBUTE MEASURED: Cytotoxocity (µM)

COMPOUND	TARGET DESC	ATTRIBUTE MEASURED	VALUE
N=C(N)c1ccc(-c2ccc(-c3ccc(C(=N)N)nc3)[se]2)cn1 [Compound 22, dihydrochloride]	L-6 rat mycoblast cells	Cytotoxocity	5.6
N=C(N)c1ccc(-c2ccc(-c3ccc(C(=N)N)cc3)o2)cc1 [Furamidine, reference compound]	L-6 rat mycoblast cells	Cytotoxocity	6.4
Cl.Cl.N=C(N)c1ccc(-c2ccc(-c3ccc(C(=N)N)cc3)[se]2)cc1	L-6 rat mycoblast cells	Cytotoxocity	9.7
N=C(N)c1ccc(-c2ccc(-c3ccc(C(=N)N)cn3)[se]2)nc1 [Compound 27, dihydrochloride]	L-6 rat mycoblast cells	Cytotoxocity	158.3
N=C(N)c1ccc(-c2ccc(-c3ccc(C(=N)N)nc3)[se]2)cc1	L-6 rat mycoblast cells	Cytotoxocity	13.4
N=C(N)c1ccc(-c2ccc(-c3ccc(C(=N)N)cn3)[se]2)cc1	L-6 rat mycoblast cells	Cytotoxocity	27.7

====

- Tested on: STIB 900 strain of Trypanosoma brucei rhodesiense
- ASSAY INFO: In vivo activity against T. b. r. STIB 900 in a mouse model
- RUN PARAMETERS: mouse, ip, 5 mg/kg, days 3-6 post-infection; untreated controls expire between 7 and 8 days
Where a name gives a salt, the structure may show the parent alone.

COMPOUND	OUTPUT UNIT	Survival (average days of survival)
N=C(N)c1ccc(-c2ccc(-c3ccc(C(=N)N)nc3)[se]2)cn1 [Compound 22, dihydrochloride]	days	60
N=C(N)c1ccc(-c2ccc(-c3ccc(C(=N)N)nc3)[se]2)cc1 [Compound 18]	days	60
N=C(N)c1ccc(-c2ccc(-c3ccc(C(=N)N)cn3)[se]2)cc1 [Compound 11]	days	60
Cl.Cl.N=C(N)c1ccc(-c2ccc(-c3ccc(C(=N)N)cn3)s2)nc1 [Compound 30]	days	50.25
N=C(N)c1ccc(-c2ccc(-c3ccc(C(=N)N)cn3)[se]2)nc1 [Compound 27, dihydrochloride]	days	60
Cl.Cl.N=C(N)c1ccc(-c2ccc(-c3ccc(C(=N)N)nc3)s2)cn1 [Compound 33]	days	42.5
